Test system: acetylated tubulin (Lys40) in HeLa cells
Experiment: Acetylated α-tubulin measurement in vitro (immunocytochemistry)
Assay type: cell-based
Conditions: Homo sapiens, 6 hours incubation, acetylated tubulin (Lys40) by immunocytochemistry, read-out: IC50 (Tubulin deacetylation)
Measured IC50 of individual entries

Below, 3 compounds whose answers are already recorded.
input_smiles: Cc1nc(SCC(=O)c2ccc(CNC(=O)CO)s2)c2cc(C3CC3)ccc2n1
IC50: 100 to 500 nM
//
input_smiles: COc1cnc2nc(C)nc(SCC(=O)c3ccc(CN4CCOCC4=O)s3)c2c1
IC50: 100 to 500 nM
//
input_smiles: Cc1nc(SCC(=O)c2ccc(CNC(=O)CO)s2)c2cc(N3CCOCC3)ccc2n1
IC50: 100 to 500 nM

Input line: API: value(readout=IC50, system=acetylated tubulin (Lys40) in HeLa cells) for record Cc1nc(SCC(=O)c2ccc(CNC(=O)CO)s2)c2cn(C)nc2n1
Output line: 1000 to 3330 nM

Input line: Param readout= IC50; system= acetylated tubulin (Lys40) in HeLa cells; entry= O=C(CO)NCc1ccc(C(=O)CSc2nc(C(F)(F)F)nc3ccc(N4CCOCC4)cc23)s1 ; returns value.
Output line: 100 to 500 nM

Data credit: patent US12421222B2
